# targetOrSystem: SMARCA4 (Homo sapiens, UniProt P51532)
# Construct: SMARCA2/SMARCA4 protein degradation selectivity in MV4-11 cells; endogenous in cells; host or cells: MV4-11
# Sequence (P51532 whole entry): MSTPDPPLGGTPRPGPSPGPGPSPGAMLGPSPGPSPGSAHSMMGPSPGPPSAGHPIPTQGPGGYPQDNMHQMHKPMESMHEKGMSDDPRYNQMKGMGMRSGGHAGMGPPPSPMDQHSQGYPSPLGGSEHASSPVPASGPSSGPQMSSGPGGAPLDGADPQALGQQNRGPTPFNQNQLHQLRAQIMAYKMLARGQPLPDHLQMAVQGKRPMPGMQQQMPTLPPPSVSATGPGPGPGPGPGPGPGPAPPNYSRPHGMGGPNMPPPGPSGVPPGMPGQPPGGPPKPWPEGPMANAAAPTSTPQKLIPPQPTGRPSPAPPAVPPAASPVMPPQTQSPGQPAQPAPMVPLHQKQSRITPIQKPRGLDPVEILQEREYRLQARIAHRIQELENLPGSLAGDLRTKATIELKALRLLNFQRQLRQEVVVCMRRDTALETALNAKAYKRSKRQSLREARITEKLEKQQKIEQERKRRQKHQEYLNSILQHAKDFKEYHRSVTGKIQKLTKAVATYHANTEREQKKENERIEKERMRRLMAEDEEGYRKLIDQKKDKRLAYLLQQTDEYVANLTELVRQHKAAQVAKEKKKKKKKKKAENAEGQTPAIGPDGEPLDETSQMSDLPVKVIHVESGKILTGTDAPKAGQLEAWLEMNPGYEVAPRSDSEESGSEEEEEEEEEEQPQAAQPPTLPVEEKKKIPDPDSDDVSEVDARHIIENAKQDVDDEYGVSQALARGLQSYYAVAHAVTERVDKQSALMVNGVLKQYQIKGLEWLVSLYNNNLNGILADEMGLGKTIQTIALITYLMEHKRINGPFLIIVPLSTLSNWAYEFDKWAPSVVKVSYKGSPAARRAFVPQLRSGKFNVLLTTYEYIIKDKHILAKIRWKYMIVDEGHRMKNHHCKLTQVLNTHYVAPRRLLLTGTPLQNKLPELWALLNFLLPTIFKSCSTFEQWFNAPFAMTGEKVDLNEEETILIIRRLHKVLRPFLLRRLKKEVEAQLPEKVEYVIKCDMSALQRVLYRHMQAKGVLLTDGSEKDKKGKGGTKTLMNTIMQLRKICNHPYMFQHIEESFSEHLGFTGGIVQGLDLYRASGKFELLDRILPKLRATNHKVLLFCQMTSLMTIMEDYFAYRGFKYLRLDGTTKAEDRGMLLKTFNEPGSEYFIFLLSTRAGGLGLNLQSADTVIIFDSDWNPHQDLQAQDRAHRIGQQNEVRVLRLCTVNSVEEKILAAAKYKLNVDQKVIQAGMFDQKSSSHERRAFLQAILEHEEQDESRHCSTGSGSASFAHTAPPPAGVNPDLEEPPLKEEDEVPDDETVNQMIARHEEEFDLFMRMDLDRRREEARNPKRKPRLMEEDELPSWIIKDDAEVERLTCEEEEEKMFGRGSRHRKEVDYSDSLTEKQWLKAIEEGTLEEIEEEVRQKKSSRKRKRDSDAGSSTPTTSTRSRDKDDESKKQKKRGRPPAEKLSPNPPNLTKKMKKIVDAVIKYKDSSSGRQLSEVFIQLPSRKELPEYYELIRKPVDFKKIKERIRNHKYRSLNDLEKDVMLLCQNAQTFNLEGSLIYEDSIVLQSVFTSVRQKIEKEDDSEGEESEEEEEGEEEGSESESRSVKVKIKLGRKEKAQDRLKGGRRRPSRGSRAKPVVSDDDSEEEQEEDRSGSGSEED
# protocolSummary: SMARCA4 Western blot degradation in MV4-11 cells
# Assay type: cell-based
# testConditions: MV4-11, MV4-11 cells, 24 h; read-out: SMARCA4 MSD MV411 degradation 24 h: average Dmax %
# Method: Example 11. SMARCA2 and SMARCA4 Western Blot MV4-11 Degradation Cells were seeded into 6-well plates (MV4-11:4×10^6 cells/well/1 ml) and 1 ml of 2× compound solution was added into the well to make the final concentration and the plates were mixed well and incubated for 24 hours (No cytotoxicity was observed). The cell were collected with media and spun at 3000 rpm for 5 minutes. […] The membrane was washed three times with 5 minutes each and lastly the LiCOR was read. […]
measuredQuantity: Dmax

C#Cc1ccc([C@@H](C)NC(=O)[C@@H]2C[C@@H](O)CN2C(=O)C(c2cc(N3CCC(CN4CCC(N5CCC(N6CCN7c8cc(-c9ccccc9O)nnc8NC[C@H]7C6)CC5)CC4)CC3)no2)C(C)C)c(Cl)c1 (stereo partly drawn)	70 to 90%
Cc1ncsc1-c1ccc(CNC(=O)[C@@H]2C[C@@H](O)CN2C(=O)[C@@H](NC(=O)N2CCC3(CC2)CC(N2CCC(c4cnc(N5CCN6c7cc(-c8ccccc8O)nnc7NC[C@H]6C5)nc4)CC2)C3)C(C)(C)C)cc1	< 50%
CC(C)(C)[C@H](NC(=O)[C@H]1CCC2(CC1)C[C@H](N1CCC(c3cnc(N4CCN5c6cc(-c7ccccc7O)nnc6NC[C@H]5C4)nc3)CC1)C2)C(=O)N1C[C@H](O)C[C@H]1C(=O)NCC#Cc1ccc(Cl)cc1 (single isomer, unassigned)	< 50%
C#Cc1ccc(CNC(=O)[C@@H]2C[C@@H](O)CN2C(=O)[C@@H](NC(=O)N2CC3(CC(N4CCC(c5cnc(N6CCc7[nH]c8nnc(-c9ccccc9O)cc8c7[C@H]6C)nc5)CC4)C3)C2)C(C)(C)CCO)c(Cl)c1 (single isomer, unassigned)	70 to 90%
C#Cc1ccc([C@H](C)NC(=O)[C@@H]2C[C@@H](O)CN2C(=O)[C@@H](NC(=O)N2CC3(CC(N4CCC(c5cnc(N6CCc7[nH]c8nnc(-c9ccccc9O)cc8c7[C@H]6C)nc5)CC4)C3)C2)C(C)(C)C)c(OC)c1	70 to 90%
C#Cc1ccc(CNC(=O)[C@@H]2C[C@@H](O)CN2C(=O)[C@@H](NC(=O)[C@H]2CC3(C2)C[C@H](N2CCN(C(=O)CCN4CCN5c6cc(-c7ccccc7O)nnc6NC[C@H]5C4)CC2)C3)C(C)(C)C)cc1 (stereo partly drawn)	> 90%

Item Cc1ncsc1-c1ccc(CNC(=O)[C@@H]2C[C@@H](O)CN2C(=O)[C@@H](NC(=O)N2CC3(CC(N4CCC(c5cnc(N6CCc7[nH]c8nnc(-c9ccccc9O)cc8c7[C@H]6C)nc5)CC4)C3)C2)C(C)(C)C)cc1 has what recorded Dmax?
50 to 70%

Try the compound C#Cc1ccc(CNC(=O)[C@@H]2C[C@@H](O)CN2C(=O)[C@@H](NC(=O)N2CC3(CC(N4CCC([C@H]5CC[C@@H](N6CCc7[nH]c8nnc(-c9ccccc9O)cc8c7[C@H]6C)CC5)CC4)C3)C2)C(C)(C)C)cc1
70 to 90%

Try the compound C#Cc1ccc([C@H](C)NC(=O)[C@@H]2C[C@@H](O)CN2C(=O)[C@H](c2cc(OCCN3CCN4c5cc(-c6ccccc6O)nnc5NC[C@H]4C3)no2)C(C)C)cc1 (single isomer, unassigned)
< 50%
